// data source = patent US8029764B2

System: colorectal tissue transcripts
Assay: SAGE of normal, adenoma and cancer colorectal tissue (transcript tag counts)
Parameters: species or system human
Conditions: SAGE library NC2
Procedure: In an effort to identify potential molecular markers of early colorectal tumors, we have here analyzed gene expression in benign and malignant colorectal tumors in an unbiased and comprehensive fashion. […] The abundance of each tag provides a quantitative measure of the transcript level present within the mRNA population studied. […] For the current study, SAGE libraries derived from two samples of normal colonic epithelium, two colorectal adenomas, and two colorectal cancers were analyzed. […]
In this section, each of the sequences is paired with its reported NC2 (SAGE tag count).
Parameter: NC2 (SAGE tag count)

> print(dat)
                              item.sequence  value.observed
1  GCCGTGGAGA (chemistry not fully specified)              23
2  AGTGGGCTCA (chemistry not fully specified)               8
3  CCAGGGGAGA (chemistry not fully specified)              66
4  ATTTCAAGAT (chemistry not fully specified)              21

###

System: colorectal tissue transcripts
Assay: SAGE of normal, adenoma and cancer colorectal tissue (transcript tag counts)
Design: species or system human
Details: SAGE library CA1
Parameter: CA1 (SAGE tag count)

> print(dat)
                               item.sequence  value.observed
 1  GCCCACGTCA (chemistry not fully specified)               0
 2  CATAGGTTTA (chemistry not fully specified)               5
 3  GACCAGTGGC (chemistry not fully specified)               2
 4  CCTGCTGCAG (chemistry not fully specified)               6
 5  GATATGTAAA (chemistry not fully specified)               0
 6  GTCCTGAACA (chemistry not fully specified)               0
 7  CCACTGCACC (chemistry not fully specified)               6
 8  GTATTGGGGC (chemistry not fully specified)               0
 9  AATCACAAAT (chemistry not fully specified)              14
10  GCTGTGCCTG (chemistry not fully specified)              11
11  CTGGCAAAGG (chemistry not fully specified)               0
12  CTTCCAGCTA (chemistry not fully specified)              14
13  GCACCTGTCG (chemistry not fully specified)               1
14  AGCCCGACCA (chemistry not fully specified)               1
15  CTAGCCTCAC (chemistry not fully specified)              36
16  GTAGCAGGTG (chemistry not fully specified)               7
17  CCCTCCCGAA (chemistry not fully specified)              18
18  GCCACATACT (chemistry not fully specified)               0
19  GGCCCTGCAG (chemistry not fully specified)               5
20  GCAGCTCCTG (chemistry not fully specified)               7
21  CTTAGAGGGG (chemistry not fully specified)               1
22  AATAGTTTCC (chemistry not fully specified)               6
23  ATGATGGCAC (chemistry not fully specified; the letters are possibly those of the target site)               1
24  GCACAGGTCA (chemistry not fully specified)               1
25  GCCGTGGAGA (chemistry not fully specified)               7
26  CTGAACCTCC (chemistry not fully specified)               0
27  CCTGGAAGAG (chemistry not fully specified)              12
28  GAGAGCTCCC (chemistry not fully specified)               2
29  CGGACTCACT (chemistry not fully specified)              14
30  GCCCAGGGCC (chemistry not fully specified; the letters are possibly those of the target site)               2
31  CTTGATTCCC (chemistry not fully specified)               2
32  GCTGGCCCCG (chemistry not fully specified)               0
33  GGCTCGGGAT (chemistry not fully specified)               3
